- experimentalTarget: Nucleic Acid
- measurementDescription: Binding affinity to RNAse P
- Assay type: nucleic-acid assay
propertyLabel: Kd (µM)
Please respond with the number in µM and leave the unit unwritten.

Q: What value of Kd has been reported for the following compound? NC(=O)Cc1ccccn1 [PYRIDINE ACETAMIDE]
Result: 20

---

- experimentalTarget: Nucleic Acid
- measurementDescription: Binding affinity to A-site RNA
- Format: nucleic-acid assay
propertyLabel: pKd
Quick note: pKd means taking -log10 of the concentration in moles per liter.

Q: What value of pKd has been reported for the following compound? NC[C@H]1O[C@H](O[C@H]2[C@H](O)[C@@H](O[C@H]3O[C@H](CO)[C@@H](O)[C@H](N)[C@H]3O)[C@H](N)C[C@@H]2N)[C@H](N)[C@@H](O)[C@@H]1O
Result: 7.22

More entries:
Q: What value of pKd has been reported for the following compound? NC[C@@H]1O[C@H](O[C@H]2[C@@H](O)[C@H](O[C@@H]3[C@@H](O)[C@H](N)C[C@H](N)[C@H]3O[C@H]3O[C@H](CO)[C@@H](O)C[C@H]3N)O[C@@H]2CO)[C@H](N)[C@@H](O)[C@@H]1O[C@H]1O[C@H](CO)[C@@H](O)[C@H](O)[C@@H]1O
Result: 7.55

Q: What value of pKd has been reported for the following compound? NC[C@H]1O[C@H](O[C@H]2[C@H](O[C@@H]3O[C@H](CO)[C@@H](O)[C@H]3O)[C@@H](O)[C@H](N)C[C@@H]2N)[C@H](N)[C@@H](O)[C@@H]1O
Result: 5.77

Q: What value of pKd has been reported for the following compound? NC[C@@H]1O[C@@H](O[C@H]2[C@H](O)[C@@H](O[C@H]3O[C@H](CO)[C@@H](O)[C@H](N)[C@H]3O)[C@H](N)C[C@@H]2N)[C@@H](O)[C@H](O)[C@H]1O
Result: 7.00

Q: What value of pKd has been reported for the following compound? NCC[C@H](O)C(=O)N[C@@H]1C[C@H](N)[C@@H](O[C@H]2O[C@H](CN)[C@@H](O)[C@H](O)[C@H]2O)[C@H](O)[C@H]1O[C@H]1O[C@H](CO)[C@@H](O)[C@H](N)[C@H]1O
Result: 7.30

Q: What value of pKd has been reported for the following compound? NC[C@H]1O[C@H](O[C@H]2[C@H](O)[C@@H](O[C@H]3O[C@H](CO)[C@@H](O)[C@H](N)[C@H]3O)[C@H](N)C[C@@H]2N)[C@H](N)C[C@@H]1O
Result: 7.10

Q: What value of pKd has been reported for the following compound? NC[C@@H]1O[C@H](O[C@H]2[C@@H](O)[C@H](O[C@@H]3[C@@H](O)[C@H](N)C[C@H](N)[C@H]3O[C@H]3O[C@H](CN)[C@@H](O)[C@H](O)[C@H]3N)O[C@@H]2CO)[C@H](N)[C@@H](O)[C@@H]1O
Result: 7.22

Q: What value of pKd has been reported for the following compound? CN[C@@H]1[C@@H](O[C@H]2O[C@H](CO)[C@@H](N)[C@H](O)[C@H]2O)OC2C[C@@H](N)[C@@H](O[C@H]3[C@H](O)[C@@H](O)[C@H](N)C[C@@H]3N)OC2[C@@H]1O (stereo not given in full)
Result: 7.22
